- Test system: Escherichia coli NIHJ JC2
- TEST SUMMARY: Minimum Growth Inhibitory Concentration (MIC), Escherichia coli NIHJ JC2
- Format: cell-based
- CONDITIONS USED: Escherichia coli, NIHJJC2, read-out: Minimum Growth Inhibitory Concentration (MIC)
METRIC NAME: MIC (µg/mL)
Please reply with the bare figure in µg/mL and do not write the unit itself.

Below, 3 molecules whose answers are already recorded.
MOLECULE	MIC / µg/mL
C=CCO/N=C(\C(=O)N[C@@H]1C(=O)N2C(C(=O)O)=C(CSc3cc[n+](CC(=O)O)cc3)CS[C@H]12)c1csc(N)n1.[Na+] [Example 30]	25
Nc1nc(/C(=N/OCC(=O)O)C(=O)N[C@@H]2C(=O)N3C(C(=O)O)=C(CSc4cc[n+](CC(=O)O)cc4)CS[C@H]23)cs1.[Na+] [Example 29]	0.39
CCO/N=C(\C(=O)N[C@@H]1C(=O)N2C(C(=O)O)=C(CSc3cc[n+](CC(=O)O)cc3)CS[C@H]12)c1csc(N)n1.[Na+]	0.78

Consider the record given below.
Could you please provide reported MIC for CO/N=C(\C(=O)N[C@@H]1C(=O)N2C(C(=O)O)=C(CSc3cc[n+](CC(=O)O)cc3)CS[C@H]12)c1csc(N)n1.[Na+] ? Thanks!
1.56
